- Study target: T1, Anti-CD28 scFv (VH-linker 1-VL) (biotinylated (site not stated))
- T1 construct: biotinylated and captured on neutravidin coated plates in the phage ELISA
- T1 sequence (scFv, as listed by the source): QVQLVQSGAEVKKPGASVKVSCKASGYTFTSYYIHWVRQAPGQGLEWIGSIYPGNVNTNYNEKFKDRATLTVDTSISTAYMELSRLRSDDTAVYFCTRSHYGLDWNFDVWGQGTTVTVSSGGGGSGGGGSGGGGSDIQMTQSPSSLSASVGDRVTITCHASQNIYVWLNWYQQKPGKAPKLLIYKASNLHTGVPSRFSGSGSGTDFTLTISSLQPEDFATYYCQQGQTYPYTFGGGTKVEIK
- Protocol description: phage ELISA, captured biotinylated scFv; background signal 0.071
I'd be grateful if you could share measured Phage binding ELISA CD28 scFv signal for these entries.
Numbers only.

Below, each entry is followed by its recorded Phage binding ELISA CD28 scFv signal result.
Binder | Recorded endpoint | Quantitative readout
MDWCPRYLWHECFA [Phage-71] | Phage binding ELISA CD28 scFv signal | 2.63
MDWCPMDLWDYCFN [Phage-51] | Phage binding ELISA CD28 scFv signal | 1.64
MDWCPMHLWNKCFN [Phage-53] | Phage binding ELISA CD28 scFv signal | 1.04
MDWCPRALWHECFN [Phage-73] | Phage binding ELISA CD28 scFv signal | 2.69

The record that follows has no Phage binding ELISA CD28 scFv signal shown yet.
Record MDWCPRHLWVHCFN [Phage-42] , field Phage binding ELISA CD28 scFv signal: 2.5
